assayed_target: UniProt:P31751
Sequence (P31751 whole entry): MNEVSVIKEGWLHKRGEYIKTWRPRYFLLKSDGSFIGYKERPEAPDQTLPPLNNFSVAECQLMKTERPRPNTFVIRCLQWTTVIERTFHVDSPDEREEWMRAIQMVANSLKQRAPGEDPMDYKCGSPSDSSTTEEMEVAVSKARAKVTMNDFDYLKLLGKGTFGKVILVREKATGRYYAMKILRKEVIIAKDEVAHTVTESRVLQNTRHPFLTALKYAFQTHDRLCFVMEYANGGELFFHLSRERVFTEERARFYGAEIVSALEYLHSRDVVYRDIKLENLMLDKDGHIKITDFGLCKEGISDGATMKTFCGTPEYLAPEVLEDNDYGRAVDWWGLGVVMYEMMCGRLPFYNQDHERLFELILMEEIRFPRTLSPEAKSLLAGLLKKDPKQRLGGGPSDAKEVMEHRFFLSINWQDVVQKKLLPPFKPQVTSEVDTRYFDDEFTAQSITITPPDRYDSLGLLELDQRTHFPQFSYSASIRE
experimental_details: Live cell AKT2 target engagement by NanoBRET competitive probe displacement
setup_conditions: HEK293 cells transfected with kinase-NanoLuciferase fusion, 2 h at 37° C.
readout_type: IC50 (nM)

molecule | operator_symbol | measured_result
C=CC(=O)Nc1ccc(F)cc1C(=O)N[C@H]1CCc2cc(-n3c(-c4cccnc4N)nc4ccc(-n5cccn5)nc43)ccc21 | = | 20.2
Nc1ncccc1-c1nc2ccc(-n3cccn3)nc2n1-c1ccc2c(c1)CC[C@@H]2NC(=O)c1ccccc1NC(=O)C1=CCCC1 | = | 738
C=CC(=O)N1CCC(N[C@H]2CCc3cc(-n4c(-c5cccnc5N)nc5ccc(-n6cccn6)nc54)ccc32)CC1CC#N (single isomer, unassigned) [Example 327] | = | 99.4
C=CC(=O)N1CCC(N[C@@H]2c3ccc(-n4c(-c5cccnc5N)nc5ccc(-n6ccc(OC)n6)nc54)cc3CC2F)CC1 (single isomer, unassigned) [Example 287] | = | 41.8
C=CC(=O)Nc1cccc(F)c1C(=O)N[C@H]1CCc2cc(-n3c(-c4cccnc4N)nc4ccc(-n5cccn5)nc43)ccc21 | = | 22
C=CC(=O)N1CCC(N[C@H]2CCc3cc(-n4c(-c5cccnc5N)nc5ccc(-c6nnc(C)o6)nc54)ccc32)CC1 | = | 394
C=CC(=O)N1CC2CC[C@@H]1CC2N[C@H]1CCc2cc(-n3c(-c4cccnc4N)nc4ccc(-n5cccn5)nc43)ccc21 (single isomer, unassigned) [Example 132] | = | 2250
C=CC(=O)N1CCC(N[C@@H]2c3ccc(-n4c(-c5cccnc5N)nc5ccc(-n6cccn6)nc54)cc3CC2F)C[C@H]1C (single isomer, unassigned) [Example 145] | = | 1030
C=C(F)C(=O)Nc1cccc(C(=O)N[C@H]2CCc3cc(-n4c(-c5cccnc5N)nc5ccc(-n6cccn6)nc54)ccc32)c1 | = | 71.5
C=CC(=O)N1CCOCC(N[C@H]2CCc3cc(-n4c(-c5cccnc5N)nc5ccc(-n6cccn6)nc54)ccc32)C1 (single isomer, unassigned) [Example 53] | = | 3940
C=CC(=O)N1CCCC(c2cn([C@H]3CCc4cc(-n5c(-c6cccnc6N)nc6ccc(-n7cccn7)nc65)ccc43)nn2)C1 (single isomer, unassigned) | = | 369
C=CC(=O)N1CCC(N[C@@H]2c3ccc(-n4c(-c5ccccc5)nc5ccc(-n6cccn6)nc54)cc3CC2F)CC1C(F)F (single isomer, unassigned) [Example 331] | = | 128
C=CC(=O)N1CCC(N[C@H]2CCc3cc(-n4c(-c5cccnc5N)nc5c(C#N)cc(-n6cccn6)nc54)ccc32)CC1 | = | 70.3
C=CC(=O)N1CCC(N[C@H]2CCc3cc(-n4c(-c5cccnc5N)nc5ccc(-n6cccn6)nc54)ccc32)C(OC)C1 (single isomer, unassigned) [Example 116] | = | 942
C=C(F)C(=O)N1CC2(CC(N[C@H]3CCc4cc(-n5c(-c6cccnc6N)nc6ccc(-n7cccn7)nc65)ccc43)C2)C1 | = | 583
C=CC(=O)N1CCN(NC2CCc3cc(-n4c(-c5cccnc5N)nc5ccc(-n6cccn6)nc54)ccc32)CC1 (racemic) [Example 77] | = | 346
C=CC(=O)N1CCC(N[C@H]2CCc3cc(-n4c(-c5cccnc5N)nc5ccc(-n6ccc(C)n6)nc54)ccc32)CC1 | = | 98.5
C=CC(=O)N1CCC(N[C@H]2CCc3cc(-n4c(-c5cccnc5N)nc5ccc(-n6cc(F)cn6)nc54)ccc32)CC1 | = | 36.8
C=CC(=O)N1CCC(N[C@H]2CCc3cc(-n4c(-c5cccnc5N)nc5ccc(C6CC6)nc54)ccc32)C(C)C1 (single isomer, unassigned) [Example 231] | = | 174
C=CC(=O)N1CCC(N[C@@H]2c3c(F)cc(-n4c(-c5cccnc5N)nc5ccc(-n6cccn6)nc54)cc3CC2F)CC1 (single isomer, unassigned) | = | 194
C=CC(=O)N1CCC(N(C)[C@H]2CCc3cc(-n4c(-c5cccnc5N)nc5ccc(-n6cccn6)nc54)ccc32)CC1 | = | 107
C=CC(=O)N1CCC(N[C@H]2CCc3cc(-n4c(-c5ccccc5F)nc5ccc(-n6cccn6)nc54)ccc32)CC1 | = | 18.8
CC#CC(=O)Nc1cccc(C(=O)N[C@H]2CCc3cc(-n4c(-c5cccnc5N)nc5ccc(-n6cccn6)nc54)ccc32)c1 | = | 129
C=CC(=O)N1CCC(N[C@H]2CCc3cc(-n4c(-c5ccccc5)nc5ccc(-n6cccn6)nc54)ccc32)CC1 | > | 10000
